Measured normalized growth, listed per entry for reference.
- procedure_text: chemical genetic growth profiling, strain panel (AID 1159580);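 further: tested at 20 µM; growth read once vehicle control cultures reached saturation at 30 °C; 1 = growth at the plate median or of vehicle wells; lower values mean less growth of the strain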
- condition_context: S. cerevisiae deletion strains, growth OD, locus YGL240W, strain doc1, active compounds read low
Out of some 5,500 compounds screened, about 2,000 (36%) were called active. Inconclusive results (about 18%) are left out. This is one part of the list.
endpoint: normalized growth

>>> value("CCCC(C(=O)OCCN(CC)CC)(c1ccccc1)c1ccccc1")
0.99
>>> value("C[C@H](CCC(=O)O)[C@H]1CCC2C3C(CC[C@@]21C)[C@@]1(C)CC[C@@H](O)C[C@H]1C[C@H]3O (some centres not stated)")
1.02
>>> value("c1ccc2nc(N3CCNCC3)ccc2c1")
0.998
>>> value("COc1cc(C)c(C(=O)Oc2cc(C)c(C(=O)O)c(O)c2C)c(OC)c1C")
0.941
>>> value("COc1ccc(C(=O)N2CCCC2=O)cc1")
0.992
>>> value("N#C/C(=C\\c1cccc(O)c1)C(=O)O")
0.986
>>> value("CC1=C2[C@H]3OC(=O)[C@@H](C)[C@@H]3CC[C@@]2(C)C=CC1=O")
0.963
>>> value("CCN(CC)CCOC(=O)C(c1ccccc1)c1ccccc1")
0.963
>>> value("CNC(=O)Oc1ccc2c(c1)[C@]1(C)CCN(C)[C@@H]1N2C")
0.992
>>> value("CCC(=O)Nc1ccc(Cl)c(Cl)c1")
0.96
>>> value("C=C1C(C2(C)C=CC(=O)C(C)(C)C2CC(=O)OC)CC[C@@]2(C)[C@H](c3ccoc3)OC(=O)C3OC132 (some centres not stated)")
0.999
>>> value("N[C@@H]1[C@@H](O)[C@H](O)[C@@H](CO)O[C@H]1O")
1.04
>>> value("Clc1ccc2c(c1)C(N1CCNCC1)=Nc1ccccc1O2")
0.975
>>> value("COc1cc(S(C)=O)ccc1-c1nc2ncccc2[nH]1 (configuration not stated)")
0.999
>>> value("c1ccc2c(c1)CN1CCCC1=N2")
1.01
>>> value("Cc1nc2ccccn2c(=O)c1CCN1CCC(C(=O)c2ccc(F)cc2)CC1")
1.01
>>> value("COc1ccc(C(=O)CC(=O)c2ccc(C(C)(C)C)cc2)cc1")
0.986
>>> value("CC1CCC2(OC1)OC1CC3C4CCC5C[C@@H](O)CCC5(C)C4=CCC3(C)C1[C@@H]2C (some centres not stated)")
1.01
>>> value("N[C@H](Cc1ccccc1)C(=O)O")
0.955
>>> value("C=C1C2CC[C@@]3(C)[C@H](c4ccoc4)OC(=O)C[C@]13O[C@H]1CC(O)C(C)(C)C(CC(=O)OC)[C@@]21C (some centres not stated)")
0.97
>>> value("C=C1C2=CC(=O)O[C@@H](c3ccoc3)[C@]2(C)CCC1[C@@]1(C)C=CC(=O)C(C)(C)[C@@H]1CC(=O)OC (some centres not stated)")
0.994
>>> value("CN1CCN(C2=Nc3ccccc3Oc3ccc(Cl)cc32)CC1")
1.02

These measurements were taken from PubChem BioAssay AID1159580.
